For each of the compounds below, state its IC50.
- protocol: Antiproliferative activity against human A2780/DX cells after 72 hrs by SRB assay
- Format: functional, cell-based
Give a bare numeral; the unit µM is implied.

Please look at this compound and report its IC50: O=C(c1cc(Cc2n[nH]c(=O)c3ccccc23)ccc1F)N1CCN(C(=O)C2CC2)CC1 [OLAPARIB] 41.9

Please look at this compound and report its IC50: NC(=O)n1ccc2ccc(-c3ccc(CN4CCCCC4)cc3)nc21 11.2

----------
- assay_system: Poly [ADP-ribose] polymerase 1 (Homo sapiens)
- Sequence (P09874 whole entry, the tested form may be a part): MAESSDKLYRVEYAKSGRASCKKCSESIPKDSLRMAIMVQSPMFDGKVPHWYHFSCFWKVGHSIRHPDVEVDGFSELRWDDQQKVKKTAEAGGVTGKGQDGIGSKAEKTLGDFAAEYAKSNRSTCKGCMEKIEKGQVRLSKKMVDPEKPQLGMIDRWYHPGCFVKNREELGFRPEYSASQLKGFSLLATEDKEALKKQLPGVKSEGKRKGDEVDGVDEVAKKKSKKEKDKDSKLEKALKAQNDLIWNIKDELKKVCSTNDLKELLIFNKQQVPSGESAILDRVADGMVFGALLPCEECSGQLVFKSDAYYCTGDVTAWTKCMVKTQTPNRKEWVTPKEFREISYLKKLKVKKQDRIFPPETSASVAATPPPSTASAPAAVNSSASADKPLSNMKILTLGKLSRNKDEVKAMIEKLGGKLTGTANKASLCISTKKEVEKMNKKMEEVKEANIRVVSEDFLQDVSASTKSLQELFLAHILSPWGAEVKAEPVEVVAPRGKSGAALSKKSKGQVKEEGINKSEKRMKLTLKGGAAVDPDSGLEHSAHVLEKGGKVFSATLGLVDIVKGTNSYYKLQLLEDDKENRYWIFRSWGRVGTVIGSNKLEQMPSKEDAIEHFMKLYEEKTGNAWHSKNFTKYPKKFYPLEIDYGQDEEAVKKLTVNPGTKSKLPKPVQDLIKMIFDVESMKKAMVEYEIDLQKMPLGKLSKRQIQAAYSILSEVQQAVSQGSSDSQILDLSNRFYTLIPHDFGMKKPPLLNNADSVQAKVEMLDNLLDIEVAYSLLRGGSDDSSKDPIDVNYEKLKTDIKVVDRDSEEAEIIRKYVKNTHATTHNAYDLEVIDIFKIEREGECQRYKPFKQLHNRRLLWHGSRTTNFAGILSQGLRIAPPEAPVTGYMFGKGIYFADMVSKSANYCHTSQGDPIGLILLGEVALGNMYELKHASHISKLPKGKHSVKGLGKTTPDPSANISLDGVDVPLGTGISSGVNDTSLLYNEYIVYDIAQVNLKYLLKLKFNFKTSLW
- protocol: Inhibition of recombinant human GST-fused PARP-1 expressed in Escherichia coli after 30 mins by fluorescence assay
pIC50: −log10 of the molar value.
Lab note: compare pIC50 against 6. Equal or greater, write fulfilled. Smaller, write not fulfilled.

Reported pIC50 reaches at least 6 for NC(=O)n1ccc2ccc(-c3ccccc3F)nc21 ? not fulfilled

Reported pIC50 reaches at least 6 for NC(=O)n1ccc2ccc(N3CCCC3)nc21 ? fulfilled

Reported pIC50 reaches at least 6 for NC(=O)n1ccc2ccc(-c3ccc(CN4CCCCC4)cc3)nc21 ? fulfilled

Reported pIC50 reaches at least 6 for NC(=O)Cn1ccc2ccc(-c3ccc(CN4CCCC4)cc3)nc21 ? not fulfilled

Reported pIC50 reaches at least 6 for NC(=O)n1ccc2ccc(-c3ccc(CN4CCOCC4)cc3)nc21 ? not fulfilled

Reported pIC50 reaches at least 6 for NC(=O)n1ccc2ccc(-c3ccc(C(=O)N4CCCCC4)cc3)nc21 ? not fulfilled

The reported measurements were obtained from ChEMBL document CHEMBL3102753.
